Data origin: patent US10287267B2

# System: Tau phosphorylation at Ser396 (pSer396)
# method: Tau phosphorylation assay (pSer396 ELISA / western blot) in SH-SY5Y cells;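 also: EC50 for reduction of Tau pSer396 in lysed cells, measured by colorimetric ELISA or chemiluminescent western blot, both using the same pSer396 antibody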
# Type: cell-based, human
# experimental.parameters: Homo sapiens; SH-SY5Y cells, overnight (16-18 h) exposure; read-out: pSer396 Tau EC50
quantity.name: log10 EC50 (log10 of the value in nM)

compound="CC(C)CN1CCC[C@H](C(=O)Nc2cc3cc(-c4cnn(C)c4)ccc3cn2)C1 [Compound 112]" quantity_name="log10 EC50" test_result=3.24
compound="CN1CCC(C(=O)Nc2cc3cc(-c4cnn(C)c4)c(Cl)cc3cn2)CC1 [Compound 1027]" quantity_name="log10 EC50" test_result=3.34
compound="Cc1ncc(-c2ccc3cnc(NC(=O)[C@@H]4CCCO4)cc3c2)n1C [Compound 188]" quantity_name="log10 EC50" test_result=3.63
compound="CC(C(=O)Nc1cc2cc(-c3cnn(C)c3)ccc2cn1)N1CCCCC1 (centres unmarked) [Compound 314]" quantity_name="log10 EC50" test_result=2.11
compound="CN1CCC(F)(C(=O)Nc2cc3cc(-c4cnn(C)c4)ccc3cn2)CC1 [Compound 92]" quantity_name="log10 EC50" test_result=3.59
compound="CC(C)CN1CCCC(C(=O)Nc2cc3cc(-c4cnn(C)c4)ccc3cn2)CC1 (centres unmarked) [Compound 1079]" quantity_name="log10 EC50" test_result=2.28
compound="C[C@@H]1CCCN1CC(=O)Nc1cc2cc(-c3cnc4n3CCNC4)ccc2cn1 [Compound 1030]" quantity_name="log10 EC50" test_result=3.08
compound="[2H]C([2H])([2H])n1cc(-c2ccc3cnc(NC(=O)CN4CCCC4)cc3c2)cn1 [Compound 305]" quantity_name="log10 EC50" test_result=2.39
